All values here come from patent US20260242478A1.

- MEASURED TARGET: T1, PSMA Fab (006 PSMA Fab) (biotinylated for capture on neutravidin plates (site not stated))
- T1 construct: also called Anti-PSMA Fab; anti-PSMA Fab
- TEST DESCRIPTION: phage ELISA as above, wells pre-incubated with PSMA antigen as competitor
Could you please report measured Phage binding ELISA signal, Anti-PSMA Fab in presence of PSMA for the items listed next?
// no unit string in output, number only

// lookup Phage binding ELISA signal, Anti-PSMA Fab in presence of PSMA for LDPMCVPSWMCWGF (Peptide-180 library clone, tested as clonal M13 phage displaying the peptide fused to pIII) [Phage-3270]
0.0992

Item under review: FDRICKPAWMCIEF (Peptide-180 library clone, tested as clonal M13 phage displaying the peptide fused to pIII) [Phage-3275] . Reported Phage binding ELISA signal, Anti-PSMA Fab in presence of PSMA?
0.0573

Value lookup for Phage binding ELISA signal, Anti-PSMA Fab in presence of PSMA; key = ISPRCEPLWMCTGL (Peptide-180 library clone, tested as clonal M13 phage displaying the peptide fused to pIII) [Phage-3269]
0.0836

// query Phage binding ELISA signal, Anti-PSMA Fab in presence of PSMA value for entry LPPMCIPQWMCMHF (Peptide-180 library clone, tested as clonal M13 phage displaying the peptide fused to pIII) [Phage-3278]
0.0592

I am curious: what Phage binding ELISA signal, Anti-PSMA Fab in presence of PSMA value has been reported for GEPWCIPSWMCQGF (Peptide-180 library clone, tested as clonal M13 phage displaying the peptide fused to pIII) [Phage-3279] ?
0.091

Consider the binder PARMCVPAWMCSVL (Peptide-180 library clone, tested as clonal M13 phage displaying the peptide fused to pIII) [Phage-3277] and give its measured Phage binding ELISA signal, Anti-PSMA Fab in presence of PSMA.
0.0732

Would you kindly share the measured Phage binding ELISA signal, Anti-PSMA Fab in presence of PSMA for INAWCIPAWMCEGF (Peptide-180 library clone, tested as clonal M13 phage displaying the peptide fused to pIII) [Phage-3272] ?
0.137

Could you tell me which Phage binding ELISA signal, Anti-PSMA Fab in presence of PSMA is on file for MVVRCEPEWMCIGF (Peptide-180 library clone, tested as clonal M13 phage displaying the peptide fused to pIII) [Phage-3274] ?
0.0649

Which Phage binding ELISA signal, Anti-PSMA Fab in presence of PSMA reading was recorded for the binder LPYMCTPIWMCIGF (Peptide-180 library clone, tested as clonal M13 phage displaying the peptide fused to pIII) [Phage-3267] ?
0.143

What Phage binding ELISA signal, Anti-PSMA Fab in presence of PSMA value was documented for this binder, WNHVCIPTWMCTGM (Peptide-180 library clone, tested as clonal M13 phage displaying the peptide fused to pIII) [Phage-3280] ?
0.0817
